System: ATP;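 also: ATP exposure 15 min at 22 °C before imaging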
Assay: switch fluorescence ratio, 500 uM ATP over buffer (Cy3 cluster intensity, sum of 5 cycles each) (fold (ratio)); higher = stronger signal-on switching upon ATP binding; sequences stand for … in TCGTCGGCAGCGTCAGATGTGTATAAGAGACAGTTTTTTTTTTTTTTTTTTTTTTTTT…TC
Settings: aptamer strand: ATP DNA aptamer (quencher-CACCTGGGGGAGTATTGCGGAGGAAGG + anchor), 100 nM annealed; ATP concentration: 500 uM
EXPERIMENTAL_ENDPOINT: switch fluorescence ratio

INSERT INTO results (query_sequence, tgt, test_value) VALUES
  ('CATGGAGGTC', 'ATP', 1.03),
  ('TACGTAATTT', 'ATP', 1.17),
  ('ACTTCCGCGA', 'ATP', 1.75),
  ('CTCGGTTTAG', 'ATP', 1),
  ('CTTGGGACTT', 'ATP', 1),
  ('TGTTTCCGTG', 'ATP', 0.977),
  ('GTTTACTCTT', 'ATP', 0.996),
  ('GAATGTTCAG', 'ATP', 1.02),
  ('AAAGGGAGAA', 'ATP', 0.971),
  ('TACTATCGTT', 'ATP', 0.994),
  ('GTTGGGGTCG', 'ATP', 0.998),
  ('TAGAGATGGT', 'ATP', 0.962),
  ('GAGGAATGAG', 'ATP', 0.988),
  ('TGAACGTCCA', 'ATP', 1.09),
  ('CATGTCGAGC', 'ATP', 1.02),
  ('ATCAGGCATT', 'ATP', 1.03),
  ('TTAAGGCGGA', 'ATP', 1.04),
  ('CTGATGGGGA', 'ATP', 0.961),
  ('GGTTTCGCTT', 'ATP', 1.03),
  ('TCTCTTTTTA', 'ATP', 1.02);

* * *

Here, each record is paired with measured switch fluorescence ratio data.
Tested on: ATP;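 also: ATP exposure 15 min at 22 °C before imaging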
Assay: switch fluorescence ratio, 500 uM ATP over buffer (Cy3 cluster intensity, sum of 5 cycles each) (fold (ratio)); higher = stronger signal-on switching upon ATP binding; sequences stand for … in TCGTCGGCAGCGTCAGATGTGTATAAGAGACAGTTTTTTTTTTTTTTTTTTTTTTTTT…TC
Conditions: aptamer strand: ATP DNA aptamer (quencher-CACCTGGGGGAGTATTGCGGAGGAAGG + anchor), 100 nM annealed; ATP concentration: 500 uM
EXPERIMENTAL_ENDPOINT: switch fluorescence ratio

INSERT INTO measurements (query_sequence, test_value) VALUES
  ('TACATAATTA', 0.993),
  ('GGGTGAAGGG', 0.974),
  ('TTTCCATAAG', 1.01),
  ('CTTTCCCCGT', 1.4),
  ('AAGACCGGGA', 1.01),
  ('TATTTGTACG', 1.02),
  ('ACCGGGGGTA', 0.991),
  ('GGTCATTCAA', 0.982),
  ('TTGGCCGTAG', 1.01),
  ('TCGGGCTTTT', 0.969),
  ('TCTTTACCGA', 1.02),
  ('GGTACTA', 1.02),
  ('ATGTATTACT', 1.03),
  ('CATGCCGCAT', 1.13),
  ('CATTATGATG', 1.01),
  ('TCATTTTGG', 0.992),
  ('AGAATGGTTT', 0.985),
  ('TTCATCGGTT', 0.992),
  ('AGGACGGGA', 1.03),
  ('TTATTCTTGT', 1),
  ('TTATAACTCA', 0.997),
  ('CCACAGAGGG', 1.21),
  ('AGACACGGGG', 1.06),
  ('TGAACGGATC', 1.03),
  ('CGGTGTAGAG', 0.996),
  ('CTAGGTTATG', 0.978),
  ('TAGTATGTGT', 0.958),
  ('TGGGTCAAAT', 1.02),
  ('CGGTCCTTGG', 0.99),
  ('TTGCTGATTC', 0.981),
  ('GGGGAATTTT', 1.01),
  ('AGCATTTATA', 0.981),
  ('TATGAGGTTG', 1),
  ('GGGGAATTAA', 0.99),
  ('CAATGGTTAG', 0.998),
  ('TGTAGCAGCT', 1.12),
  ('TAAATTGCGG', 0.966),
  ('CTTTCTAAGG', 1.02),
  ('TTCTTGTGGG', 1.05),
  ('ATCGCTTAAG', 0.991),
  ('AGGTAGCTGT', 1.04),
  ('TGGGGGACGA', 0.954),
  ('GCGAGCCACG', 1.01),
  ('AATAAGGGTG', 1.09),
  ('ATATCTATTT', 0.997),
  ('GTGGTAATGG', 0.953),
  ('GCGTTAGGGT', 0.976),
  ('TAGGGTCGT', 0.993),
  ('TTCTACACAG', 1.04),
  ('GTTGATCCTT', 0.999),
  ('ATTGGCTAGT', 0.966),
  ('CAAGGGTGTG', 0.988),
  ('CTCGATAGGT', 0.984),
  ('ATCTTTTTGG', 0.996),
  ('TGGGGGCAGG', 1.01),
  ('TCCAGTCATT', 0.998),
  ('ACCAAGGGCT', 0.996),
  ('GATGAATCGG', 0.973),
  ('AGGAAATTAT', 1.01),
  ('TTTTGTAAGA', 1.03),
  ('TTTGGTGCCC', 1.03),
  ('ATGGATAAGC', 0.997),
  ('ACTTGAGGAT', 1),
  ('ATATCATGTC', 0.99),
  ('CTGGGTTTCG', 0.974),
  ('GTTTTCGGGA', 1.03),
  ('AAGGTAGAAT', 0.986),
  ('GTTGTTAGGA', 0.961),
  ('AAATATTTAC', 1.12),
  ('GGGGGGGCGA', 0.987),
  ('GGGAGACAGA', 0.957),
  ('ATACCCTGGG', 1.03),
  ('TTCACTTAGC', 1.08),
  ('GCTTGGGGTT', 0.98),
  ('TCGGGATTTT', 0.997),
  ('TATAAGGTCC', 0.98),
  ('GATTATATAT', 0.986),
  ('AAGGGGAGTT', 0.998),
  ('TAGGATGTCT', 1),
  ('GCGGGGACAT', 0.994),
  ('TATGGCCAAT', 1.03),
  ('TCTAACTTAG', 1.04),
  ('TGCATTGGGA', 1.02),
  ('GGATGCTTGG', 1.05),
  ('TGGGGGCTGT', 0.998),
  ('CCAAATTGGG', 1.02);
